measurement_notes: NCI Yeast Anticancer Drug Screen. Data for the mec2-1 strain (AID 157)
run_parameters: S. cerevisiae mec2-1 strain, at 50.0 µM (retest, dose inferred, filed as 5.0)
This is part of a sample that, as a whole, favours compounds with a hit. Of some 79,000 tested, about 15% had one in any assay. Calls of active or inactive are those of the source. No stated cut-off is given here; in the data, active means growth inhibition above about 70%; inactive means the rest.
Pick one and only one: 1.0 (active), 0.0 (inactive)

The following compounds have reported results that may help.
compound	assigned_label
O=C1c2ccccc2CCC1Br (stereo not given)	1.0
C/C=C(\C)C(=O)OC1CC(C)(C)CC2C3=CCC4C5(C)CCC(=O)C(C)(C)C5CCC4(C)C3(C)CCC12C(=O)O (stereo not given) (tested in a mixture with another compound)	1.0
CC(C)[CH2][Sn](=[O])[c]1ccccc1	0.0
COC(=O)C1=C(C(=O)OC)C2(C)OC1c1ccccc12 (stereo not given)	1.0
CC(=O)[O-].CC(=O)[O-].O=C(N/N=C/c1cc(Cl)cc(Cl)c1[OH2+])c1ccncc1.[Zn+2]	0.0

Query: What is the recorded call for this compound in the test? [C-]#[O+].[C-]#[O+].[CH3][Sn]([CH3])[c]1ccccc1.[Fe+5].[c-]1[c-][c-][cH-][c-]1
Reply: 1.0

Query: Ok, now CCC[CH2][Sn]([CH2]CCC)([N]=C=S)[N]=C=S
Reply: 1.0

Query: Same read-out for CN(C)[PH+](N(C)C)N(C)C.CN(C)[PH+](N(C)C)N(C)C.[C-]#[O+].[C-]#[O+].[C-]#[O+].[C-]#[O+].[C-]#[O+].[C-]#[O+].[Co].[Co].[Hg] ?
Reply: 0.0

Query: Try CC(C=O)[Se]c1ccccc1 (stereo not given) next.
Reply: 0.0

Query: How about O=C(CBr)Nc1ccccc1 ?
Reply: 1.0

Query: And what about the compound C=CCc1cc(Cl)ccc1OC(=O)N(C)C ?
Reply: 0.0

Query: # iterate: CC(C)C1(NC(=O)C2CC3c4cccc5[nH]cc(c45)CC3N(C)C2)OC2(O)C3CCCN3C(=O)C(Cc3ccccc3)N2C1=O (stereo not given)
Reply: 1.0

Query: Item: C[PH+](C)C.C[PH+](C)C.[Au]
Reply: 1.0

Query: Now the same for CC(=O)OCC12CC(O)C(C)=CC1OC1C(O)C(OC(C)=O)C2(C)C12CO2 (stereo not given)
Reply: 0.0

Query: Another compound to check: [C-]#[O+].[C-]#[O+].[C-]#[O+].[C-]#[O+].[Mo].c1cnc2c(c1)ccc1cccnc12
Reply: 0.0

Query: How about this compound: NC1=NC(=O)N2CC12 (stereo not given)
Reply: 0.0

Query: Also, CCCC[As](CCCC)SC1CCC2(C)C(=CCC3C4CCC(=O)C4(C)CCC32)C1 (stereo not given) please.
Reply: 1.0

Query: Similarly, CN(C)c1ccc(C2N(Cc3ccc(N(CCCl)CCCl)cc3)CCCN2Cc2ccc(N(CCCl)CCCl)cc2)cc1 ?
Reply: 0.0

Query: What do you get for COc1ccccc1/C=C/[N+](=O)[O-] ?
Reply: 1.0

Query: Now consider COc1ccc(C[C@H]2NC[C@H](O)[C@H]2OC(C)=O)cc1 and answer again.
Reply: 1.0

====

measurement_notes: NCI Yeast Anticancer Drug Screen. Data for the mec2-1 strain (AID 157)
run_parameters: S. cerevisiae mec2-1 strain, at 50.0 µM
Experimental: Growth inhibition of yeast strains with defined genetic alterations is measured as a screen for potential anti-cancer activity. Selected strains with alterations in DNA damage repair or cell cycle control were exposed to compounds and growth inhibition was measured relative to vehicle treated controls. The strain used in this assay is mec2-1
The panel holds about 79,000 compounds, 15% with a hit somewhere; the sample as a whole holds those more often. Active and inactive are the calls of the source. Cut-off read from the data, not from the text of the source: active = growth inhibition above about 70%; inactive = the rest.
Pick one: TRUE (active), FALSE (inactive)

molecule	assigned_label
O=P(N1CCOCC1)(N1CC1)N1CC1	FALSE
CCOC(=O)C1=C(C)/C(=C/c2[n-]c(C)c(C(=O)OCC)c2C)N=C1C.CCOC(=O)C1=C(C)/C(=C/c2[n-]c(C)c(C(=O)OCC)c2C)N=C1C.[Zn+2]	TRUE
O=C(O)[C@@H]1C2CCC(C[C@@H]1O)N2C(=O)c1ccccc1 (stereo not given in full)	FALSE
O=P(Nc1ccc(Cl)cc1)(Oc1ccccc1)N(CCCl)CCCl (stereo not given)	FALSE
CCCCN(CCCC)CC(O)c1ccc(Br)cc1 (stereo not given)	FALSE
Cc1c2ccncc2c(CN(CCCl)CCCl)c2c3ccccc3n(C)c12	TRUE
CCCCCCCCCCCOP(=O)(OCC)OCC	TRUE
S=C=NC/C(Cl)=C/Cl	FALSE
CC(=O)CC(=O)Nc1c(C)[c]([Hg][O]C(C)=O)c(C)[c]([Hg][O]C(C)=O)[c]1[Hg][O]C(C)=O	TRUE

Shift focus to the following entry.
Query: Please state the recorded outcome for this molecule: C1CC[N-]CC1.CC(=N\O)/C(C)=N/O.CC(=N\O)/C(C)=N/O.C[CH-]C(C)O.[Co+2]
Reply: FALSE
